Target: MAST1, Q9Y2H9
Sequence (Q9Y2H9 962-1065): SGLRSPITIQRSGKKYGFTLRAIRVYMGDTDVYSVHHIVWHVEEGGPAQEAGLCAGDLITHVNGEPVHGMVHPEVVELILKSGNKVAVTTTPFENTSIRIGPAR
Experiment: holdup assay
Parameters: key: below the threshold = too weak to quantify, mostly under pKd 3.1 to 4
Conditions: plain residues with an end cap or a label only (N-terminal biotin on a linker: ado-ado)
OBSERVATION_TYPE: pKd
Lab note: jot the number down without any unit.

Answered cases to consult:
BINDER	pKd
FNSYSLTGYV [CLDN2, P57739]	3.94
YRLAQESGLV [ABCC6, O95255]	3.59
NLSIEKETKL [ASNSD1, Q9NWL6]	4.73

Asked: Return reported pKd; argument: QSLNRMEYIV [JAG1, P78504]
Given back: 3.49

Asked: Return reported pKd; argument: RRISSLESEV [GRIN2C, Q14957]
Given back: 4.54

Asked: Return reported pKd; argument: EKKTLIGIKL [GOT1L1, Q8NHS2]
Given back: 3.95

Asked: Return reported pKd; argument: DTTVPESEDL [MYOZ2, Q9NPC6]
Given back: 4.21

Asked: Return reported pKd; argument: PRISRSQSEL [CCDC134, Q9H6E4]
Given back: 4.74

Asked: Return reported pKd; argument: PDGQCTVTEV [RNF146, Q9NTX7]
Given back: 4.8

Source listed as paper PMC9482650.
